# Tested on: OVCAR-4 ovarian
# Assay notes: NCI tumour cell line growth inhibition, 48 h
Parameter: TGI (µM)
Express your answer in µM, writing the number without its unit.

Exam item: Record request: TGI value, item O=c1cc(-c2ccccc2)oc2cc(OCCCC[P+](c3ccccc3)(c3ccccc3)c3ccccc3)cc(O)c12
Marked response: 6.76

Exam item: Report TGI for Cc1ccccc1[C@H]1C(C(=O)c2ccc(Cl)cc2)C2(N[C@@H]1c1ccccc1)C(=O)Nc1ccccc12 (some centres undefined) please.
Marked response: 16.2

Exam item: Reported TGI for Cc1nc(Nc2nc(C)c3ccc(OCCN4CCOCC4)cc3n2)[nH]c(=O)c1C : what is it?
Marked response: 7.74

Exam item: Which TGI is listed for CC1=C2C(=C[C@@](C)(COCOCCCl)[C@@H]2O)C(=O)[C@](C)(O)C12CC2 ?
Marked response: 0.86
